Target Of Assay: HIV-1 Env of pseudovirus isolate MGRM-G-014 (subtype G) (HIV-1)
Procedure Details: cell-based or functional assay
Observable: IC50 (ng/mL)
Could you give me the number in ng/mL? Just the number is fine.

Example binders with recorded IC50:
Entry under test: PGT-127 (antibody, V domains shown) VH: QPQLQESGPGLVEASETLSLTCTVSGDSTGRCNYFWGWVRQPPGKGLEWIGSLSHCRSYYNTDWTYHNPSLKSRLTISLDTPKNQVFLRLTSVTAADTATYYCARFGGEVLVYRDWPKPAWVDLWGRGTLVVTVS VL: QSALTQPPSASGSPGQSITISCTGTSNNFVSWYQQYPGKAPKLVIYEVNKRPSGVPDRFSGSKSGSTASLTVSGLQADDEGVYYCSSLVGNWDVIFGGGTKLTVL . Its IC50 was 9

Entry under test: PGT-125 (antibody, V domains shown) VH: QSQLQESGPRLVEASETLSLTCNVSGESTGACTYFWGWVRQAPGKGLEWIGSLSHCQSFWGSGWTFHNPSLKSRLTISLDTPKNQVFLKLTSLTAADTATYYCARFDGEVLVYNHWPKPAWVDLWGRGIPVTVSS VL: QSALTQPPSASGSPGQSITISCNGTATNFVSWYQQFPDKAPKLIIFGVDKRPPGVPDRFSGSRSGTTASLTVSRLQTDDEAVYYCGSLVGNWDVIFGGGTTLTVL . Its IC50 was 7

# evaluate next
Entry under test: PGT-126 (antibody, V domains shown) VH: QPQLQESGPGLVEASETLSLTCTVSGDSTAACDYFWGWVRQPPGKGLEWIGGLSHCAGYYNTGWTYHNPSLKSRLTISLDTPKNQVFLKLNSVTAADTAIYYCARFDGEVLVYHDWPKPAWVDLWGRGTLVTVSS VL: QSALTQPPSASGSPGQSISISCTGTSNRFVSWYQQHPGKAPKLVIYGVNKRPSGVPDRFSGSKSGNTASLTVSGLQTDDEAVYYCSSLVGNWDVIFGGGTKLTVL . Its IC50 was 9
